Data origin: the Human Domainome abundance scans (Beltran et al. 2025)

B1: POU domain, class 2, transcription factor 1, residues 285 to 354; numbered along this chain, P14859 (parent)
chain: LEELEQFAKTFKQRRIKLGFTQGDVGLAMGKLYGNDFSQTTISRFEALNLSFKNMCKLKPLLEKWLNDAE

- Variants of: B1
- protocol-text: abundance fitness (aPCA) (normalised: wild type 0, dead -1); higher = more abundant; growth selection in yeast, the domain comes from the species named
- measurement-setup: Homo sapiens
measured-parameter: abundance fitness

Record excerpt, results attached:
change | result
Q39N | -0.055
G26Q | -0.014
Q22W | -0.072

Measured abundance fitness of `G26M` : -0.04

The recorded abundance fitness for entry `D68Y` equals -0.063

Memo: `G30I` , reported abundance fitness: 0.012

Record `P60F` , field abundance fitness: -0.114

Item: `I16W` | abundance fitness: -0.269

Entry `P60S` , abundance fitness reported as -0.029

What the record says about `S38T` : abundance fitness is 0.012

Consider `Q13W` . Its measured abundance fitness is -0.188

So, `L62T` ? Its abundance fitness was -0.406

Record `L50V` , field abundance fitness: -0.1

Per the records, this variant ( `E46L` ) has abundance fitness equal to -1.01

// field: abundance fitness; key: `P60Q` ; value = -0.094
